Below, each of the molecules is paired with its reported half-life value.
# experiment-summary: Terminal half life in Ellegaard Gottingen minipig at 5 nmol/kg, iv by LC-MS/MS analysis
# Assay type: ADME, organism-based, Sus scrofa
# assay-context: pig, in vivo, read-out: beta t1/2 (converted)
Numbered stars: 1 amine (or outer) side, 2 acyl side, 3 side chain; on linkers, the order of the positions; unused ones are H or OH. Square brackets hold non-standard residues; d marks the D form. Peptide text beside a SMILES is read from it. * marks the point of attachment. Phe(4-CH2SO3H) = N[C@@H](Cc1ccc(CS(=O)(=O)O)cc1)C(=O)O; C20 diacid = O=C(O)CCCCCCCCCCCCCCCCCCC(=O)*; γGlu = O=C(O)[C@H](CCC(=O)[*:2])N[*:1]; C14 diacid = O=C(O)CCCCCCCCCCCCC(=O)*; NMeF = CN[C@@H](Cc1ccccc1)C(=O)O; dNMeD = CN[C@H](CC(=O)O)C(=O)O; Nle = CCCC[C@H](N)C(=O)O; AEEA = NCCOCCOCC(=O)O
Unit h implied. Number only.

Example entries begin here.
molecule="CCCC[C@H](NC(=O)[C@H](Cc1c[nH]c2ccccc12)NC(=O)CNC(=O)[C@H](CC(C)C)NC(=O)[C@H](Cc1ccc(CS(=O)(=O)O)cc1)NC(=O)[C@H](CC(=O)O)NC(=O)COCCOCCNC(=O)COCCOCCNC(=O)CC[C@H](NC(=O)CCCCCCCCCCCCC(=O)O)C(=O)O)C(=O)N(C)[C@H](CC(=O)O)C(=O)N(C)[C@@H](Cc1ccccc1)C(N)=O ({C14 diacid-γGlu-AEEA-AEEA}-D[Phe(4-CH2SO3H)]LGW[Nle][dNMeD][NMeF]-NH2)" measured=2
molecule=CCCC[C@H](NC(=O)[C@H](Cc1c[nH]c2ccccc12)NC(=O)CNC(=O)[C@H](CC(C)C)NC(=O)[C@H](Cc1ccc(O)cc1)NC(=O)[C@H](CC(=O)O)NC(=O)COCCOCCNC(=O)COCCOCCNC(=O)CC[C@H](NC(=O)CCCCCCCCCCCCCCCCC(=O)O)C(=O)O)C(=O)N(C)[C@@H](CC(=O)O)C(=O)N(C)[C@@H](Cc1ccccc1)C(N)=O measured=45

Kindly consider the entry below.
Ask: // lookup half-life for CCCC[C@H](NC(=O)[C@H](Cc1c[nH]c2ccccc12)NC(=O)CNC(=O)[C@H](CC(C)C)NC(=O)[C@H](Cc1ccc(CS(=O)(=O)O)cc1)NC(=O)[C@H](CC(=O)O)NC(=O)COCCOCCNC(=O)COCCOCCNC(=O)CC[C@H](NC(=O)CCCCCCCCCCCCCCCCCCC(=O)O)C(=O)O)C(=O)N(C)[C@H](CC(=O)O)C(=O)N(C)[C@@H](Cc1ccccc1)C(N)=O ({C20 diacid-γGlu-AEEA-AEEA}-D[Phe(4-CH2SO3H)]LGW[Nle][dNMeD][NMeF]-NH2)
Reply: 153

---

# system-name: Gastrin/cholecystokinin type B receptor (Homo sapiens, UniProt P32239)
# Sequence (P32239 whole entry): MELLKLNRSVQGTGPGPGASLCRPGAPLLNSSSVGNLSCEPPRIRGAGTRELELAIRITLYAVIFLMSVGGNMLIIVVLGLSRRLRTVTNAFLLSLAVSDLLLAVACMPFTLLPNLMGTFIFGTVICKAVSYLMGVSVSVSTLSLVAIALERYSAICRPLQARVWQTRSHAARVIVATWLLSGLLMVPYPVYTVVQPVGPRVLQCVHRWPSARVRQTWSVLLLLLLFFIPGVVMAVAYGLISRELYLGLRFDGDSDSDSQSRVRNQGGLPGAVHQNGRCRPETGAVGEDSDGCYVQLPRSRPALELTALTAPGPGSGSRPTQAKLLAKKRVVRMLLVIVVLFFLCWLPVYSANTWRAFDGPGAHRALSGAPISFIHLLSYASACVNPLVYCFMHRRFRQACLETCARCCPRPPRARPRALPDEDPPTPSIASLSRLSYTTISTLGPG
# experiment-summary: Displacement of [125I]-CCK-8 from human CCK2R expressed in human 1321N1 cell membranes after 2 hrs by SPA assay
Numbered stars: 1 amine (or outer) side, 2 acyl side, 3 side chain; on linkers, the order of the positions; unused ones are H or OH. Square brackets hold non-standard residues; d marks the D form. Peptide text beside a SMILES is read from it. * marks the point of attachment. sY = N[C@@H](Cc1ccc(OS(=O)(=O)O)cc1)C(=O)O; C18 diacid = O=C(O)CCCCCCCCCCCCCCCCC(=O)*; NMe1Nal = CN[C@@H](Cc1cccc2ccccc12)C(=O)O; γGlu = O=C(O)[C@H](CCC(=O)[*:2])N[*:1]; 1Nal = N[C@@H](Cc1cccc2ccccc12)C(=O)O; NMeD = CN[C@@H](CC(=O)O)C(=O)O; Nle = CCCC[C@H](N)C(=O)O; AEEA = NCCOCCOCC(=O)O; βAla = NCCC(=O)O
Below, each of the compounds is paired with its reported IC50 value.
Unit nM implied. Number only.

Example entries begin here.
compound="CCCC[C@H](NC(=O)[C@H](Cc1ccc(OS(=O)(=O)O)cc1)NC(=O)[C@H](CC(=O)O)NC(=O)COCCOCCNC(=O)COCCOCCNC(=O)CC[C@H](NC(=O)CCCCCCCCCCCCCCCCC(=O)O)C(=O)O)C(=O)NCC(=O)N[C@@H](Cc1c[nH]c2ccccc12)C(=O)N[C@@H](CCCC)C(=O)N[C@@H](CC(=O)O)C(=O)N[C@@H](Cc1c[nH]c2ccccc12)C(N)=O ({C18 diacid-γGlu-AEEA-AEEA}-D[sY][Nle]GW[Nle]DW-NH2)" unit_text=nM measured=0.132
compound="CCCC[C@H](NC(=O)[C@H](Cc1ccc(OS(=O)(=O)O)cc1)NC(=O)[C@H](CC(=O)O)NC(=O)COCCOCCNC(=O)COCCOCCNC(=O)CC[C@H](NC(=O)CCCCCCCCCCCCCCCCC(=O)O)C(=O)O)C(=O)NCC(=O)N[C@@H](Cc1c[nH]c2ccccc12)C(=O)N[C@@H](CCCC)C(=O)N[C@@H](CC(=O)O)C(=O)N[C@@H](Cc1cccc2ccccc12)C(N)=O ({C18 diacid-γGlu-AEEA-AEEA}-D[sY][Nle]GW[Nle]D[1Nal]-NH2)" unit_text=nM measured=0.0933
compound="CCCC[C@H](NC(=O)[C@H](Cc1ccc(OS(=O)(=O)O)cc1)NC(=O)[C@H](CC(=O)O)NC(=O)COCCOCCNC(=O)COCCOCCNC(=O)CC[C@H](NC(=O)CCCCCCCCCCCCCCCCC(=O)O)C(=O)O)C(=O)NCC(=O)N[C@@H](Cc1c[nH]c2ccccc12)C(=O)N[C@@H](CCC(N)=O)C(=O)N[C@@H](CC(=O)O)C(=O)N[C@@H](Cc1ccccc1)C(N)=O ({C18 diacid-γGlu-AEEA-AEEA}-D[sY][Nle]GWQDF-NH2)" unit_text=nM measured=2.04
compound="CCCC[C@H](NC(=O)[C@H](Cc1c[nH]c2ccccc12)NC(=O)CNC(=O)[C@H](CC(C)C)NC(=O)[C@H](Cc1ccc(OS(=O)(=O)O)cc1)NC(=O)[C@H](CC(=O)O)NC(=O)COCCOCCNC(=O)COCCOCCNC(=O)CC[C@H](NC(=O)CCCCCCCCCCCCCCCCC(=O)O)C(=O)O)C(=O)N(C)[C@@H](CC(=O)O)C(=O)N(C)[C@@H](Cc1cccc2ccccc12)C(N)=O ({C18 diacid-γGlu-AEEA-AEEA}-D[sY]LGW[Nle][NMeD][NMe1Nal]-NH2)" unit_text=nM measured=603

Kindly consider the entry below.
Ask: // lookup IC50 for CCCC[C@H](NC(=O)[C@H](Cc1c[nH]c2ccccc12)NC(=O)CCNC(=O)[C@H](CC(C)C)NC(=O)[C@H](Cc1ccc(OS(=O)(=O)O)cc1)NC(=O)[C@H](CC(=O)O)NC(=O)COCCOCCNC(=O)COCCOCCNC(=O)CC[C@H](NC(=O)CCCCCCCCCCCCCCCCC(=O)O)C(=O)O)C(=O)N[C@@H](CC(=O)O)C(=O)N[C@@H](Cc1ccccc1)C(N)=O ({C18 diacid-γGlu-AEEA-AEEA}-D[sY]L[βAla]W[Nle]DF-NH2)
Reply: 0.398

---

# system-name: Gastrin/cholecystokinin type B receptor (Homo sapiens)
# Sequence (whole entry): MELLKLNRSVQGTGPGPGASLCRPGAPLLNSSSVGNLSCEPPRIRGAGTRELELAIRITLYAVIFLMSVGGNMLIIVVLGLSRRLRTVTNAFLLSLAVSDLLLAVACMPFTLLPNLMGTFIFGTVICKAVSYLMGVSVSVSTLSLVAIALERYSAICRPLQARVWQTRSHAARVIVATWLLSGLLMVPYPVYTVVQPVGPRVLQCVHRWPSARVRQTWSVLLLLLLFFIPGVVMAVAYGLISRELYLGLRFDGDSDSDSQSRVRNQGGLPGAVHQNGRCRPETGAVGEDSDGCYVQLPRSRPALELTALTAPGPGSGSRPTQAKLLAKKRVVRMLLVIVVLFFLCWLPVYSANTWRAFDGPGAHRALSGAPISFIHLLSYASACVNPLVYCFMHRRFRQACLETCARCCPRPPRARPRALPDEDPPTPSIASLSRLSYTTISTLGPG
# experiment-summary: Agonist activity at human CCK2R expressed in human 1321N1 cells assessed as IP1 accumulation after 1 hr by HTRF assay
# Type: functional, cell-based
Active and inactive are the calls of the source. No cut-off for these calls is given here. Numbered stars: 1 amine (or outer) side, 2 acyl side, 3 side chain; on linkers, the order of the positions; unused ones are H or OH. Square brackets hold non-standard residues; d marks the D form. Peptide text beside a SMILES is read from it. * marks the point of attachment. sY = N[C@@H](Cc1ccc(OS(=O)(=O)O)cc1)C(=O)O; C18 diacid = O=C(O)CCCCCCCCCCCCCCCCC(=O)*; γGlu = O=C(O)[C@H](CCC(=O)[*:2])N[*:1]; Nle = CCCC[C@H](N)C(=O)O; AEEA = NCCOCCOCC(=O)O
observed-property: pEC50

molecule="CCCC[C@H](NC(=O)[C@H](Cc1ccc(OS(=O)(=O)O)cc1)NC(=O)[C@H](CC(=O)O)NC(=O)COCCOCCNC(=O)COCCOCCNC(=O)CC[C@H](NC(=O)CCCCCCCCCCCCCCCCC(=O)O)C(=O)O)C(=O)NCC(=O)N[C@@H](Cc1c[nH]c2ccccc12)C(=O)N[C@@H](CCCCN)C(=O)N[C@@H](CC(=O)O)C(=O)N[C@@H](Cc1ccccc1)C(N)=O ({C18 diacid-γGlu-AEEA-AEEA}-D[sY][Nle]GWKDF-NH2)" observed_property=pEC50 measured=inactive
molecule="CCCC[C@H](NC(=O)[C@H](Cc1ccc(OS(=O)(=O)O)cc1)NC(=O)[C@H](CC(=O)O)NC(=O)COCCOCCNC(=O)COCCOCCNC(=O)CC[C@H](NC(=O)CCCCCCCCCCCCCCCCC(=O)O)C(=O)O)C(=O)NCC(=O)N[C@@H](Cc1c[nH]c2ccccc12)C(=O)N[C@@H](CCC(=O)O)C(=O)N[C@@H](CC(=O)O)C(=O)N[C@@H](Cc1ccccc1)C(N)=O ({C18 diacid-γGlu-AEEA-AEEA}-D[sY][Nle]GWEDF-NH2)" observed_property=pEC50 measured=inactive
molecule=CCCC[C@H](NC(=O)[C@H](Cc1ccc(CS(=O)(=O)O)cc1)NC(=O)[C@H](CC(=O)O)NC(=O)COCCOCCNC(=O)COCCOCCNC(=O)CC[C@H](NC(=O)CCCCCCCCCCCCCCCCC(=O)O)C(=O)O)C(=O)NCC(=O)N[C@@H](Cc1c[nH]c2ccccc12)C(=O)N[C@@H](CCCC)C(=O)N(C)[C@H](CC(=O)O)C(=O)N(C)[C@@H](Cc1ccccc1)C(=O)O observed_property=pEC50 measured=inactive

meta.source: ChEMBL document CHEMBL4368907
